Target: T1, Rb^P I703F (human, UniProt P06400 380-788, I703F)
T1 sequence: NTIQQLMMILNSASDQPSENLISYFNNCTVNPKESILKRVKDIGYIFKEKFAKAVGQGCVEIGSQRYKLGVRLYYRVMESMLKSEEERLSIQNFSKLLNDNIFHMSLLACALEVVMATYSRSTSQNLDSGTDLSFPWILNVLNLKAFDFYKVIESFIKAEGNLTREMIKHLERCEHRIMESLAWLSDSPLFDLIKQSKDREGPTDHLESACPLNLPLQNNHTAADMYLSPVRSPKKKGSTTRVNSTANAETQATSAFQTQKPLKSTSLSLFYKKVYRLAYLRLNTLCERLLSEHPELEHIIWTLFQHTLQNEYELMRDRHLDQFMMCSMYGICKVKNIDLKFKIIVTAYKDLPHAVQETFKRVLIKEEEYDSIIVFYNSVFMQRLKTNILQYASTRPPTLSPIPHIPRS
Assay: fluorescence polarisation
test-readout: pKd
Schema: pKd number; meaning minus log10 of the concentration expressed in molar units.

q: So what does the record say about pKd for DLYCYEQLN (not fully specified; TMR fluorescent label (TMR-E7^LxCxE)) [TMR-E7^LxCxE (LxCxE peptide of the E7 oncoprotein from HPV, TMR-labeled)] ?
a: 7.80
